Recorded inhibition at 100 µM by entry
TARGET_SYSTEM: smooth muscle myosin S1 (Gallus gallus, UniProt P10587)
Construct: purchased Cytoskeleton #CS-MYS05
Sequence (P10587 84-789 limits assumed): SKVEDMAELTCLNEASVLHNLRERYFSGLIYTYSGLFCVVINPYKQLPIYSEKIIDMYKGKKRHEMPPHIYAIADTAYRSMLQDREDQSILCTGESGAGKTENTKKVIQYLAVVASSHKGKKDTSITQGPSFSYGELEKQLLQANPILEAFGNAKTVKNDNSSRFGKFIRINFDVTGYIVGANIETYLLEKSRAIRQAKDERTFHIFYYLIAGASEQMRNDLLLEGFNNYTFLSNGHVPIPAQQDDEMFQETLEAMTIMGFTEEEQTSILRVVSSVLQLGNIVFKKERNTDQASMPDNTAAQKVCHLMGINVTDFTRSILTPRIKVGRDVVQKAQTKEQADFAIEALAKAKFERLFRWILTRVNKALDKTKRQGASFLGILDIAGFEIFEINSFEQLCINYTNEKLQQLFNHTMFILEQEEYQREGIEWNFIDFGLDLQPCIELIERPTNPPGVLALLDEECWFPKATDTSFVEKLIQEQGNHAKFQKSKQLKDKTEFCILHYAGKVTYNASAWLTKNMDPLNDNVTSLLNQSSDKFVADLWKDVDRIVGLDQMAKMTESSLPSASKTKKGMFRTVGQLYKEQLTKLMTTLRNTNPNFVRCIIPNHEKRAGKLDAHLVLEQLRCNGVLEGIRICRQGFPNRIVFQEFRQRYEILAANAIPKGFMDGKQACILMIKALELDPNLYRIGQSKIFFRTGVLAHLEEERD
Sequence (P02607 whole entry partner): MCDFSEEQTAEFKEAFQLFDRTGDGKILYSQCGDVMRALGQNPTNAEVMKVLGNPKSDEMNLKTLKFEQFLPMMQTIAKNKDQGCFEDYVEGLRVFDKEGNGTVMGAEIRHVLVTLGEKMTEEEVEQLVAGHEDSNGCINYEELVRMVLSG
PROTOCOL_DESCRIPTION: Inhibition of hydrolysis of ATP by smooth muscle myosin S1 fragments
Type: biochemical
PROTOCOL_CONDITIONS: 100 μM compound

MOLECULE | UNIT_OF_MEASURE | inhibition at 100 µM
O=c1ccc(-c2cnc(C3CC(F)(F)C3)nc2)nn1Cc1ccc2c(c1)CCC2 [Compound 127] | % | -6
O=C1CCc2ccc(Cn3nc(-c4cnc(OC5COCC5(F)F)nc4)ccc3=O)cc21 (stereo not shown) [Compound 164] | % | 17
O=C1CCc2ccc(Cn3nc(-c4cnc(Oc5cncc(Cl)c5)nc4)ccc3=O)cc21 [Compound 151] | % | 2
O=C1CCc2ccc(Cn3nc(-c4cnc(C5CC5)nc4)ccc3=O)cc21 [Compound 157] | % | -3
